Data credit: ChEMBL document CHEMBL5576127

# Tested on: HepG2
# method: Antiproliferative activity against human HepG2 cells assessed as inhibition of cell proliferation incubated for 48 hrs by MTT assay
# Assay type: functional, cell-based
# test-conditions: HepG2, 48 h
pIC50: −log10 of the molar value.

- compound: "CC1(C)CC[C@]2(C(=O)OCCCOC(=O)C/C=C/c3ccc(OCc4ccc(B5OC(C)(C)C(C)(C)O5)cc4)cc3)CC[C@]3(C)[C@H](C(=O)C=C4[C@@]5(C)C=C(C#N)C(=O)C(C)(C)[C@@H]5CC[C@]43C)[C@@H]2C1"
  pIC50: 5.19
- compound: "COc1cc(C(=O)OCCCCOC(=O)[C@]23CCC(C)(C)C[C@H]2[C@H]2C(=O)C=C4[C@@]5(C)C=C(C#N)C(=O)C(C)(C)[C@@H]5CC[C@@]4(C)[C@]2(C)CC3)ccc1OCc1ccc(B2OC(C)(C)C(C)(C)O2)cc1"
  pIC50: 4.81
- compound: "COc1cc(/C=C/CC(=O)OCCCOC(=O)[C@]23CCC(C)(C)C[C@H]2[C@H]2C(=O)C=C4[C@@]5(C)C=C(C#N)C(=O)C(C)(C)[C@@H]5CC[C@@]4(C)[C@]2(C)CC3)ccc1OCc1ccc(B2OC(C)(C)C(C)(C)O2)cc1"
  pIC50: 5.26
- compound: "CC1(C)CC[C@]2(C(=O)OCCOC(=O)c3ccc(OCc4ccc(B5OC(C)(C)C(C)(C)O5)cc4)cc3)CC[C@]3(C)[C@H](C(=O)C=C4[C@@]5(C)C=C(C#N)C(=O)C(C)(C)[C@@H]5CC[C@]43C)[C@@H]2C1"
  pIC50: 5.44

###

# method: Half-life in rat at 10 mg/kg, ip measured after 24 hrs by LC-MS/MS analysis
# Type: ADME, organism-based
# test-conditions: in vivo

- compound: "CC1(C)CC[C@]2(C(=O)OCCCCOC(=O)c3ccc(O)cc3)CC[C@]3(C)[C@H](C(=O)C=C4[C@@]5(C)C=C(C#N)C(=O)C(C)(C)[C@@H]5CC[C@]43C)[C@@H]2C1"
  unit-of-measure: "h"
  half-life: 16.5

###

Quick reference: IC50 of the listed items.
# System: BGC-823
# method: Antiproliferative activity against human BGC-823 cells assessed as inhibition of cell proliferation incubated for 48 hrs by MTT assay
# Type: functional, cell-based
# test-conditions: BGC-823, 48 h

- compound: "CC1(C)CC[C@]2(C(=O)OCCCOC(=O)Cc3ccc(OCc4ccc(B5OC(C)(C)C(C)(C)O5)cc4)cc3)CC[C@]3(C)[C@H](C(=O)C=C4[C@@]5(C)C=C(C#N)C(=O)C(C)(C)[C@@H]5CC[C@]43C)[C@@H]2C1"
  test-target: "BGC-823"
  IC50 (nM): 1600
- compound: "COc1cc(/C=C/CC(=O)OCCCOC(=O)[C@]23CCC(C)(C)C[C@H]2[C@H]2C(=O)C=C4[C@@]5(C)C=C(C#N)C(=O)C(C)(C)[C@@H]5CC[C@@]4(C)[C@]2(C)CC3)ccc1OCc1ccc(B2OC(C)(C)C(C)(C)O2)cc1"
  test-target: "BGC-823"
  IC50 (nM): 2300

###

# Tested on: MCF7
# method: Antiproliferative activity against human MCF7 cells assessed as inhibition of cell proliferation incubated for 48 hrs by MTT assay
# Format: functional, cell-based
# test-conditions: MCF7, 48 h
readout-type: IC50 (µM)

- compound: "COc1cc(/C=C/CC(=O)OCCCOC(=O)[C@]23CCC(C)(C)C[C@H]2[C@H]2C(=O)C=C4[C@@]5(C)C=C(C#N)C(=O)C(C)(C)[C@@H]5CC[C@@]4(C)[C@]2(C)CC3)ccc1OCc1ccc(B2OC(C)(C)C(C)(C)O2)cc1"
  readout-type: "IC50"
  quantitative-result: 29
- compound: "COc1cc(C(=O)OCCCCOC(=O)[C@]23CCC(C)(C)C[C@H]2[C@H]2C(=O)C=C4[C@@]5(C)C=C(C#N)C(=O)C(C)(C)[C@@H]5CC[C@@]4(C)[C@]2(C)CC3)cc(OC)c1OCc1ccc(B2OC(C)(C)C(C)(C)O2)cc1"
  readout-type: "IC50"
  quantitative-result: 3.5
- compound: "COC(=O)[C@]12CCC(C)(C)C[C@H]1[C@H]1C(=O)C=C3[C@@]4(C)C=C(C#N)C(=O)C(C)(C)[C@@H]4CC[C@@]3(C)[C@]1(C)CC2"
  readout-type: "IC50"
  quantitative-result: 1.2
- compound: "CC1(C)CC[C@]2(C(=O)OCCCCOC(=O)c3ccc(OCc4ccc(B5OC(C)(C)C(C)(C)O5)cc4)cc3)CC[C@]3(C)[C@H](C(=O)C=C4[C@@]5(C)C=C(C#N)C(=O)C(C)(C)[C@@H]5CC[C@]43C)[C@@H]2C1"
  readout-type: "IC50"
  quantitative-result: 2.9
